Experiment: Cytotoxicity against mouse RAW264.7 cells assessed as cell survival at 30 uM incubated for 24 hrs by MTT assay relative to control
Assay type: toxicity, cell-based
Settings: read-out: Activity
Task for the reader: assign each of the following compounds its reported viability at 24 h, 30 µM.

[[record]]
compound = "CC1(C)[C@@H](O[C@H]2O[C@H](C(=O)O)[C@@H](O)[C@H](O)[C@H]2O[C@@H]2O[C@H](C(=O)O)[C@@H](O)[C@H](O)[C@H]2O)CC[C@]2(C)[C@H]3C(=O)C=C4[C@@H]5C[C@@](C)(C(=O)O)CC[C@]5(C)CC[C@@]4(C)[C@]3(C)CC[C@@H]12"
endpoint_value = "> 70%"


Return reported viability at 24 h, 30 µM. Input compound: CC(=O)OC[C@@H]1OC(n2cc(COC(=O)[C@@]3(C)CC[C@]4(C)CC[C@]5(C)C(=CC(=O)[C@@H]6[C@@]7(C)CC[C@H](OC(=O)CCc8ccccc8)C(C)(C)C7CC[C@]65C)[C@H]4C3)nn2)[C@H](OC(C)=O)[C@H](OC(C)=O)[C@@H]1OC(C)=O (some centres not stated)
> 70%

---

Experiment: Cytotoxicity against rat H9c2 cells assessed as inhibition of cell viability incubated for 24 hrs by MTT assay
Type: toxicity, cell-based
attribute measured: IC50 at 24 h

[[record]]
compound = "CC(=O)OC[C@@H]1OC(n2cc(COC(=O)[C@@]3(C)CC[C@]4(C)CC[C@]5(C)C(=CC(=O)[C@@H]6[C@@]7(C)CC[C@H](OC(=O)CCc8ccccc8)C(C)(C)C7CC[C@]65C)[C@H]4C3)nn2)[C@H](OC(C)=O)[C@H](OC(C)=O)[C@@H]1OC(C)=O (some centres not stated)"
attribute_measured = "IC50 at 24 h"
endpoint_value = "> 800 µM"


Please find the next compound below.
Report IC50 at 24 h for COC(=O)[C@@]1(C)CC[C@]2(C)CC[C@]3(C)C(=CC(=O)[C@@H]4[C@@]5(C)CC[C@H](OCc6cn(C7O[C@H](COC(C)=O)[C@H](OC(C)=O)[C@H](OC(C)=O)[C@H]7OC(C)=O)nn6)C(C)(C)C5CC[C@]43C)[C@H]2C1 (some centres not stated)
92.4 µM

---

Experiment: Cytotoxicity against mouse RAW264.7 cells assessed as cell survival at 30 uM incubated for 24 hrs by MTT assay relative to control
Format: toxicity, cell-based
Conditions: read-out: Activity
attribute measured: viability at 24 h, 30 µM

Consider the reported viability at 24 h, 30 µM for these compounds:
[[record]]
compound = "CC(=O)O[C@H]1[C@H](C)OC(n2cc(COC(=O)[C@@]3(C)CC[C@]4(C)CC[C@]5(C)C(=CC(=O)[C@@H]6[C@@]7(C)CC[C@H](OC(=O)CCc8ccccc8)C(C)(C)C7CC[C@]65C)[C@H]4C3)nn2)C[C@@H]1OC(C)=O (stereo partly drawn)"
attribute_measured = "viability at 24 h, 30 µM"
endpoint_value = "> 70%"

[[record]]
compound = "CC(=O)OC[C@@H]1OC(n2cc(COC(=O)[C@@]3(C)CC[C@]4(C)CC[C@]5(C)C(=CC(=O)[C@@H]6[C@@]7(C)CC[C@H](OC(=O)CCc8ccccc8)C(C)(C)C7CC[C@]65C)[C@H]4C3)nn2)[C@@H](OC(C)=O)[C@H](OC(C)=O)[C@H]1OC(C)=O (stereo partly drawn)"
attribute_measured = "viability at 24 h, 30 µM"
endpoint_value = "> 70%"


Please look at this compound and report its viability at 24 h, 30 µM: CC(=O)OC[C@@H]1OC(n2cc(COC(=O)[C@@]3(C)CC[C@]4(C)CC[C@]5(C)C(=CC(=O)[C@@H]6[C@@]7(C)CC[C@H](OC(=O)CCc8ccccc8)C(C)(C)C7CC[C@]65C)[C@H]4C3)nn2)[C@@H](OC(C)=O)[C@H]1OC(C)=O (stereo partly drawn)
> 70%
